Where these numbers come from: PubChem BioAssay AID1159580

Recorded normalized growth for the following molecules
measurement.description: chemical genetic growth profiling, strain panel (AID 1159580);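 note: tested at 20 µM; growth read once vehicle control cultures reached saturation at 30 °C; 1 = growth at the plate median or of vehicle wells; lower values mean less growth of the strain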
test.settings: S. cerevisiae deletion strains, growth OD, locus YBR229C, strain ROT2, hits give low values
Among all 5,500 compounds or so, about 2,000 (36%) were called active. Inconclusive results (about 18%) are left out. This is one part of the list.
Form rule: numeric answer, no unit written next to it.

- molecule: "O=S(=O)(O)CCS"
  normalized growth: 1.01
- molecule: "C=C[C@@](C)(O)CCC1C(=C)C[C@H](OC(C)=O)C2C(C)(C)CCCC12C (stereo not given in full)"
  normalized growth: 0.972

O=C(c1c(F)cccc1F)N1CCN(C(=O)c2c(F)cccc2F)CC1 has a reported normalized growth of 0.987

# molecule Cc1ccccc1C(OCCN(C)C)c1ccccc1 (stereo not given) ; its normalized growth = 1

Form field normalized growth, entry CCN1CCCC(OC(=O)C(c2ccccc2)c2ccccc2)C1 (stereo not given) : 1.01

Record CN1CCC(OC(c2ccccc2)c2ccccc2)CC1 . Reported normalized growth: 0.977

So, COc1cc([C@@H]2c3cc4c(cc3C(OC3O[C@@H]5COC(C)O[C@H]5[C@H](O)[C@H]3O)C3COC(=O)[C@@H]32)OCO4)cc(OC)c1O (stereo not given in full) ? Its normalized growth was 1.01

Lab note: measured normalized growth of O=C1C(Cl)=C(Cl)C(=O)C(Cl)=C1Cl was 0.979

###

measurement.description: chemical genetic growth profiling, strain panel (AID 1159580)
test.settings: S. cerevisiae deletion strains, growth OD, locus YLR320W, strain mms22, hits give low values
The whole screen tested about 5,500 compounds, of which about 2,000 (36%) were called active. About 18% were inconclusive and are not listed. The list shows a part of the results.
measurement.kind: normalized growth
Note: the reply should be a number with no unit written.

Some solved cases for reference:
- compound: "COc1cc2nc(N(C)CCCNC(=O)C3CCCO3)nc(N)c2cc1OC (stereo unspecified)"
  normalized growth: 1
- compound: "Cc1ccc(S(=O)(=O)NC(=O)NN2CCCCCC2)cc1"
  normalized growth: 0.996
- compound: "CCN(CC)Cc1ccc(Nc2ccnc3cc(Cl)ccc23)cc1O"
  normalized growth: 0.939
- compound: "CCN(CC)C(=O)N1CCN(C)CC1"
  normalized growth: 0.974

Reported normalized growth ( Nc1nc(=S)c2[nH]cnc2[nH]1 ) = 0.992

// normalized growth value for COC(=O)[C@@H]1OC(=O)C2OC23[C@@]1(C)CCC1[C@]2(C)C(C[C@H](O)[C@]13C)C(C)(C)[C@H](OC(C)=O)C[C@@H]2OC(C)=O (stereo partly specified) : 1.02

###

measurement.description: chemical genetic growth profiling, strain panel (AID 1159580)
test.settings: S. cerevisiae deletion strains, growth OD, locus YHR079C, strain IRE1 (second series), hits give low values
Among all 5,500 compounds or so, about 2,000 (36%) were called active. Another 18% or so got no clear call; they are omitted. This is one part of the list.
measurement.kind: normalized growth
Would you mind answering with just the numeric figure?

Lookup result for COc1ccccc1-c1coc2cc(O)ccc2c1=O ; measured normalized growth: 1.02

###

measurement.description: chemical genetic growth profiling, strain panel (AID 1159580)
test.settings: S. cerevisiae deletion strains, growth OD, locus YMR219W, strain ESC1
The whole screen tested about 5,500 compounds, of which about 2,000 (36%) were called active. About 18% were inconclusive and are not listed. Cut-off read from the data, not from the text of the source: active = normalized growth mostly below about 0.91 (no sharp cut-off); inconclusive = no clear call, values can overlap the other calls; inactive = mostly above about 0.92. The list shows a part of the results.
Hello, when you answer, please use one of the following outcomes: y = active, n = inactive

- structure.string: "O=C(O)c1cncc(C#Cc2ccccc2)c1"
  assigned.class: "n"
- structure.string: "O=[N+]([O-])c1ccc(S(=O)(=O)N2CCCCC2)cc1"
  assigned.class: "n"
- structure.string: "O=C(NNC(=S)Nc1cccc(Cl)c1)C1CC1"
  assigned.class: "n"

What did the test return for CCOC(=O)N=Nc1c(O)[nH]c2ccc(F)cc12 ?
n

Call for entry CCc1nnc(N=CNO)s1 :
y

###

normalized growth values, listed per item
measurement.description: chemical genetic growth profiling, strain panel (AID 1159580);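 note: tested at 20 µM; growth read once vehicle control cultures reached saturation at 30 °C; 1 = growth at the plate median or of vehicle wells; lower values mean less growth of the strain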
test.settings: S. cerevisiae deletion strains, growth OD, locus YML124C, strain tub3, hits give low values
Hit rate of the full screen: of about 5,500 compounds, about 2,000 (36%) were called active. About 18% were inconclusive and are not listed. This is one part of the list.
Format: numeric value only, no unit, no commentary.

Worked cases, normalized growth given:
- compound: "CCCCCCC(C)OC(=O)COc1cc(Cl)c(Cl)cc1Cl (stereo unspecified)"
  normalized growth: 0.985
- compound: "Oc1cc(O)c2c(c1)OC(c1cc(O)c(O)c(O)c1)C(O)C2c1c(O)cc(O)c2c1OC(c1cc(O)c(O)c(O)c1)C(O)C2c1c(O)cc(O)c2c1OC(c1cc(O)c(O)c(O)c1)C(O)C2 (stereo unspecified)"
  normalized growth: 1.01
- compound: "CCCCCCCCC(=O)NCc1ccc(O)c(OC)c1"
  normalized growth: 0.975
- compound: "O=C(O)/C=C/c1ccc(O)c(O)c1"
  normalized growth: 1
- compound: "CCC[C@H](N[C@@H](C)C(=O)N1[C@H](C(=O)O)C[C@@H]2CCCC[C@@H]21)C(=O)OCC"
  normalized growth: 1.02
- compound: "Oc1cc(O)c2c(c1)O[C@H](c1ccc(O)c(O)c1)[C@H](O)C2"
  normalized growth: 0.992
- compound: "Oc1ccc2c(c1)O[C@H](c1ccc(O)c(O)c1)[C@@H](O)C2"
  normalized growth: 1.01
- compound: "CN1CC(=O)N=C1N"
  normalized growth: 0.992
- compound: "COc1ccc(OC)c(C(O)CNC(=O)CN)c1 (stereo unspecified)"
  normalized growth: 0.981
- compound: "COc1ccc([C@H]2Oc3c(I)c(OC)cc(OC)c3C[C@@H]2O)cc1OC"
  normalized growth: 1.02

Recorded result, COc1cc(CNC(=O)CCCC/C=C/C(C)C)ccc1O , normalized growth: 0.986

###

measurement.description: chemical genetic growth profiling, strain panel (AID 1159580);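 note: tested at 20 µM; growth read once vehicle control cultures reached saturation at 30 °C; 1 = growth at the plate median or of vehicle wells; lower values mean less growth of the strain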
test.settings: S. cerevisiae deletion strains, growth OD, locus YOR265W, strain rbl2, hits give low values
About 2,000 (36%) of roughly 5,500 compounds were called active. Another 18% or so got no clear call; they are omitted. The list shows a part of the results.
Reported normalized growth values are given for each entry in this list.
Would you mind answering with just the numeric figure?

Record Cc1ccc(S(=O)(=O)NC(=O)NN2CCCCCC2)cc1 , field normalized growth: 1

The recorded normalized growth for entry Oc1cc(O)c2c(c1)O[C@H](c1cc(O)c(O)c(O)c1)[C@H](O)C2 equals 1.02

The molecule listed as Cc1ccccc1C(OCCN(C)C)c1ccccc1 (stereo not given) has a reported normalized growth of 0.994

normalized growth recorded for this molecule, CCCCCCCCCCCCCc1ccco1 , is 0.981

Record N=c1ccn2c(n1)OC1C(O)C(CO)OC12 (stereo not given) , field normalized growth: 0.993

Recorded result, Cc1ccc(C(=O)Nc2ccc(S(=O)(=O)O)c3cc(S(=O)(=O)O)cc(S(=O)(=O)O)c23)cc1NC(=O)c1cccc(NC(=O)Nc2cccc(C(=O)Nc3cc(C(=O)Nc4ccc(S(=O)(=O)O)c5cc(S(=O)(=O)O)cc(S(=O)(=O)O)c45)ccc3C)c2)c1 , normalized growth: 1.01

Noted for C#CCCCCCCCCCCCc1ccco1 : its normalized growth reads 1

Measured normalized growth, Nc1nc(=S)c2[nH]cnc2[nH]1 : 0.991

GET /value?item= COc1ccc([C@H]2Oc3c(I)c(OC)cc(OC)c3C[C@@H]2O)cc1OC &field=normalized growth returns 1

Oc1cc(O)c2c(c1)O[C@H](c1ccc(O)c(O)c1)[C@H](O)C2 has a reported normalized growth of 1.02

###

measurement.description: chemical genetic growth profiling, strain panel (AID 1159580);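 note: tested at 20 µM; growth read once vehicle control cultures reached saturation at 30 °C; 1 = growth at the plate median or of vehicle wells; lower values mean less growth of the strain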
test.settings: S. cerevisiae deletion strains, growth OD, locus YLR262C, strain YPT6, hits give low values
Out of some 5,500 compounds screened, about 2,000 (36%) were called active. Inconclusive results (about 18%) are left out. The list shows a part of the results.
Response field label takes condition met when normalized growth is strictly below 1 and condition not met in all other cases.

- structure.string: "CC(=O)Oc1cc(OC(C)=O)c2c(c1)O[C@H](c1ccc(OC(C)=O)c(OC(C)=O)c1)[C@@H](OC(C)=O)C2"
  assigned.class: "condition not met"

State whether 1 exceeds normalized growth recorded for O=C(O)CSCc1ccccc1 .
condition not met

Lab note: confirm whether the reported normalized growth for this compound is below 1, equality not counting. compound: CC(=O)Oc1cc(OC(C)=O)c2c(c1)O[C@H](c1ccc(OC(C)=O)c(OC(C)=O)c1)[C@H](OC(C)=O)C2
condition not met

Is the reported normalized growth for Nc1nc(=S)c2[nH]cnc2[nH]1 strictly below 1?
condition not met

Lab note: normalized growth threshold 1. Does this compound come in strictly under it? O=C(O[C@@H]1Cc2c(O)cc(O)cc2O[C@@H]1c1cc(O)c(O)c(O)c1)c1cc(O)c(O)c(O)c1
condition met
